# target of assay: T1, EDIII-DV3 (Dengue virus serotype 3 (DV3), UniProt Q6YMS3 579-671)
# T1 construct: also called EDIII of DV3; EDIII-DVIII
# T1 sequence (Q6YMS3 579-671 limits assumed): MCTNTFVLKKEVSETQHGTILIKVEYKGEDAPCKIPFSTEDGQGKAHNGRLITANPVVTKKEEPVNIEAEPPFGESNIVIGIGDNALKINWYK
measured property: koff (s⁻¹)
Express your answer in s⁻¹, writing the number without its unit.

Worked set:
- binder: "VH_G27P (antibody, V domains shown, also called 4E5-G27P; copies: 2 + 2) VH: VKLLEQSGAELVKPGASVRLSCTASPFNIKDTYMSWVKQRPEQGLEWIGRIDPENGDTKYDPKFQGKATITADTSSNTAYLHLSSLTSGDTAVYYCSRGWEGFAYWGQGTLVTVSA VL: ELVMTQTPASLAVSLGQRATISCRASENVDKYGNSFMHWYQQKAGQPPKLLIYRASELQWGIPARFSGSGSRTDFTLTINPVEADDVATYFCQRSNEVPWTFGGGTKLEIK"
  readout units: "s⁻¹"
  koff: 0.0133
- binder: "VH_G27_del (antibody, V domains shown) VH: VKLLEQSGAELVKPGASVRLSCTASFNIKDTYMSWVKQRPEQGLEWIGRIDPENGDTKYDPKFQGKATITADTSSNTAYLHLSSLTSGDTAVYYCSRGWEGFAYWGQGTLVTVSA VL: ELVMTQTPASLAVSLGQRATISCRASENVDKYGNSFMHWYQQKAGQPPKLLIYRASELQWGIPARFSGSGSRTDFTLTINPVEADDVATYFCQRSNEVPWTFGGGTKLEIKR"
  readout units: "s⁻¹"
  koff: 0.0483
- binder: "VH_A25_del (antibody, V domains shown, also called 4E5-del-25; copies: 2 + 2) VH: VKLLEQSGAELVKPGASVRLSCTSGFNIKDTYMSWVKQRPEQGLEWIGRIDPENGDTKYDPKFQGKATITADTSSNTAYLHLSSLTSGDTAVYYCSRGWEGFAYWGQGTLVTVSA VL: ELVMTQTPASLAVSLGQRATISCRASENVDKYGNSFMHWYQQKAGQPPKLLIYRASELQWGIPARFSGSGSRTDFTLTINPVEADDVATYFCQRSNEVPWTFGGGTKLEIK"
  readout units: "s⁻¹"
  koff: 0.0269

Okay, next one:
If you can, please state the reported koff value of VH_G27A (antibody, V domains shown) VH: VKLLEQSGAELVKPGASVRLSCTASAFNIKDTYMSWVKQRPEQGLEWIGRIDPENGDTKYDPKFQGKATITADTSSNTAYLHLSSLTSGDTAVYYCSRGWEGFAYWGQGTLVTVSA VL: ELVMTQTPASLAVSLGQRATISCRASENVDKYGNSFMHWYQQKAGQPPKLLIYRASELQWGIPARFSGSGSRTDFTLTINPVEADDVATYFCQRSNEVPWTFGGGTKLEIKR .
7.54
